Consider the following compounds; for each one, report its Intrinsic clearance.
System: Liver microsome
Experiment: Intrinsic clearance in human liver microsomes
Type: ADME

Please review the entries below; each comes with its answer.
>>> result_value("CC(C)N(C(=O)n1cnc(S[C@@H]2C[C@H]3CC[C@@H]2C3)n1)C(C)C")
"3.1 mL/min/g"
>>> result_value("CC(C)N(C)C(=O)n1cnc(S(=O)(=O)C2CC3CCC2C3)n1 (stereo not given)")
"1.6 mL/min/g"
>>> result_value("CN(Cc1ccccc1)C(=O)n1cnc(S(=O)(=O)[C@@H]2C[C@H]3CC[C@@H]2C3)n1")
"1.5 mL/min/g"

Quick batch: Intrinsic clearance for everything below.
1. O=C(N1CCCC1)n1cnc(S[C@@H]2C[C@H]3CC[C@@H]2C3)n1
2. O=C(N1CCCC1)n1cnc(S(=O)(=O)[C@@H]2C[C@H]3CC[C@@H]2C3)n1

OUTPUT:
["1.5 mL/min/g", "1 mL/min/g"]

* * *

Consider the following compounds; for each one, report its half-life.
Test: Half life in mouse liver microsomes
Type: ADME
Answers are plain numbers, in min.

>>> result_value("CC(C)N(C)C(=O)n1cnc(S(=O)(=O)C2CC3CCC2C3)n1 (configuration not stated)")
3.8

Quick batch: half-life for everything below.
1. COc1ccc(CN(C)C(=O)n2cnc(S(=O)(=O)[C@@H]3C[C@H]4CC[C@@H]3C4)n2)cc1
2. CN(Cc1ccc(C(C)(C)C)cc1)C(=O)n1cnc(S(=O)(=O)[C@@H]2C[C@H]3CC[C@@H]2C3)n1
3. CN(Cc1ccccc1)C(=O)n1cnc(S(=O)(=O)[C@@H]2C[C@H]3CC[C@@H]2C3)n1

OUTPUT:
[22.6, 9, 19.4]

* * *

Assay: Half life in human liver microsomes
Format: ADME
observation type: half-life

Quick batch: half-life for everything below.
1. CC(C)N(C)C(=O)n1cnc(S(=O)(=O)C2CC3CCC2C3)n1 (stereo not given)
2. O=C(N1CCCC1)n1cnc(S[C@@H]2C[C@H]3CC[C@@H]2C3)n1
3. O=C(N1CCCC1)n1cnc(S(=O)(=O)[C@@H]2C[C@H]3CC[C@@H]2C3)n1
4. CC(C)N(C(=O)n1cnc(S[C@@H]2C[C@H]3CC[C@@H]2C3)n1)C(C)C

OUTPUT:
1: > 30 min; 2: > 30 min; 3: > 30 min; 4: 22.3 min

INPUT: Given CN(Cc1ccccc1)C(=O)n1cnc(S(=O)(=O)[C@@H]2C[C@H]3CC[C@@H]2C3)n1 , respond with its half-life.
OUTPUT: > 30 min

* * *

Assay: Half life in mouse liver microsomes
Format: ADME
observation type: half-life

Please review the entries below; each comes with its answer.
>>> result_value("CC(C)N(C(=O)n1cnc(S[C@@H]2C[C@H]3CC[C@@H]2C3)n1)C(C)C")
"< 5 min"
>>> result_value("O=C(N1CCCC1)n1cnc(S(=O)(=O)[C@@H]2C[C@H]3CC[C@@H]2C3)n1")
"< 5 min"

INPUT: Given O=C(N1CCCC1)n1cnc(S[C@@H]2C[C@H]3CC[C@@H]2C3)n1 , respond with its half-life.
OUTPUT: < 5 min
